# TESTED_TARGET: Proteasome subunit beta (Trypanosoma cruzi) (UniProt O96673)
# Sequence (O96673 as listed by the source): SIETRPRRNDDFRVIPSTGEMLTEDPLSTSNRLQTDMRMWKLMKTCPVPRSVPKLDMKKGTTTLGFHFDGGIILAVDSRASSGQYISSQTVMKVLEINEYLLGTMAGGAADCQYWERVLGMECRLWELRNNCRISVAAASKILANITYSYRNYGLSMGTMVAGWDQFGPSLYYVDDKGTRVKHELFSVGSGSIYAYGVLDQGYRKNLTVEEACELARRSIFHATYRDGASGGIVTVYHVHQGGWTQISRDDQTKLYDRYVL
# ASSAY_OVERVIEW: Trypanosoma cruzi proteasome chymotrypsin-like activity (TcProtChymo) assay.
# Type: functional
# Parameters: scale not given: in the data most compounds retested in dose-response had high values
# CONDITION_LABEL: 9.37 µM

| COMPOUND | Percent Effect |
| --- | --- |
| CCN(Cc1ccc2c(c1)OCCO2)C(=O)NCc1nc(C)cs1 | 14.6% |
| Cc1ccc(NC2CCN(C(=O)c3cccc(F)c3F)CC2)nn1 | 1.54% |
| Cc1ccc(CN2CCC(F)(F)C3(CCN(c4cnccn4)C3)C2)o1 (stereo unspecified) | -3.13% |
| O=C(NCc1cc[nH]n1)NCC(c1ccccc1Cl)N1CCCC1 (stereo unspecified) | 13.1% |
| COCCN1CCC(NC(=O)C2(c3cc(C)cc(C)c3)CC2)CC1 | -1.95% |
| COCCC(=O)N1CC[C@@H]2O[C@@H](C)C[C@H]2C1 | 6.61% |
| Cc1ccc(-c2nc(CNCCn3cccn3)cs2)o1 | 8.19% |
| Cc1cccc(NC(=O)CNC(=O)Cn2ncc(Cl)c(Cl)c2=O)c1C | 16.6% |
| CCc1ncc2c(n1)CN(Cc1nc(-c3ccsc3)oc1C)CC2 | 9.73% |
| CC(=O)N1C[C@H](NC(=O)c2cscn2)[C@@H]2OCCC[C@@H]21 | 23.2% |
| Cc1noc([C@@]23CCO[C@@H]2CCN(C(=O)c2sccc2C)C3)n1 | 0.513% |
